biological target: murine class II MHC allele E^k on CH27 B cell lymphoma antigen presenting cells (murine); experiment: cell-based or functional assay
Non-standard residues stand in square brackets, D forms with d. Ava = NCCCCC(=O)O
PROPERTY: T cell proliferative response (HT-2 [3H]TdR uptake) at 0.73 nM

Example cases with answers are listed next.
[
  {
    "BINDER": "Ac-LRMK[Ava]IAYLKQATAK-NH2 (SMILES CC[C@H](C)[C@H](NC(=O)CCCCNC(=O)[C@H](CCCCN)NC(=O)[C@H](CCSC)NC(=O)[C@H](CCCNC(=N)N)NC(=O)[C@H](CC(C)C)NC(C)=O)C(=O)N[C@@H](C)C(=O)N[C@@H](Cc1ccc(O)cc1)C(=O)N[C@@H](CC(C)C)C(=O)N[C@@H](CCCCN)C(=O)N[C@@H](CCC(N)=O)C(=O)N[C@@H](C)C(=O)N[C@H](C(=O)N[C@@H](C)C(=O)N[C@@H](CCCCN)C(N)=O)[C@@H](C)O) [Hybrid 2, Ac-LRMK-ava-IAYLKQATAK-NH2]",
    "ASSAY_VALUE": "38.8 thousands of cpm"
  },
  {
    "BINDER": "Ac-LRMK[Ava][Ava]IAYLKQATAK-NH2 (SMILES CC[C@H](C)[C@H](NC(=O)CCCCNC(=O)CCCCNC(=O)[C@H](CCCCN)NC(=O)[C@H](CCSC)NC(=O)[C@H](CCCNC(=N)N)NC(=O)[C@H](CC(C)C)NC(C)=O)C(=O)N[C@@H](C)C(=O)N[C@@H](Cc1ccc(O)cc1)C(=O)N[C@@H](CC(C)C)C(=O)N[C@@H](CCCCN)C(=O)N[C@@H](CCC(N)=O)C(=O)N[C@@H](C)C(=O)N[C@H](C(=O)N[C@@H](C)C(=O)N[C@@H](CCCCN)C(N)=O)[C@@H](C)O) [Hybrid 3, Ac-LRMK-ava-ava-IAYLKQATAK-NH2]",
    "ASSAY_VALUE": "22.3 thousands of cpm"
  },
  {
    "BINDER": "Ac-LRMKLPKSIAYLKQATAK-NH2 [Hybrid 4, Ac-LRMKLPKSIAYLKQATAK-NH2]",
    "ASSAY_VALUE": "19.2 thousands of cpm"
  },
  {
    "BINDER": "Ac-LRMKLPKSAKPVSKIAYLKQATAK-NH2 [Hybrid 6, Ac-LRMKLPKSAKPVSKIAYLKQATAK-NH2]",
    "ASSAY_VALUE": "28.7 thousands of cpm"
  }
]

Consider the binder shown here: Ac-IAYLKQATAK-NH2 [Hybrid 1, Ac-IAYLKQATAK-NH2 (antigenic epitope PGCC 95-104 without Ii-Key)] What is its recorded T cell proliferative response (HT-2 [3H]TdR uptake) at 0.73 nM?
4 thousands of cpm
